- Measured Target: pooled human IgG (human IgG1,2,3 and 4)
Please use True for Enzyme Activity Endpoint Assay: Fc under 200 ng/µL and False for everything else, ties included.

For orientation, consider the following solved cases.
PRT-102 (protein) MANQEIRYSEVTPYHVTSVWTKGVTPPAKFTQGEDVFHAPYVANQGWYDITKTFNGKDDLLCGAATAGNMLHWWFDQNKEKIEAYLKKHPDKQKIMFGDQELLDVRKVINTKGDQTNSELFNYFRDKAFPGLSARRIGVMPDLVLDMFINGYYLNVYKTQTTDVNRTYQEKDRRGGIFDAVFTRGDQSKLLTSRHDFKEKNLKEISDLIKQELTEGKALGLSHTYANVRINHVINLWGADFDSNGNLKAIYVTDSDSNASIGMKKYFVGVNSAGKVAISAKEIKEDNIGAQVLGLFTLSTGQDSWNQTN    True
PRT-171 (protein) MANQEIRYSEVTPYHVTSVWTKGVTPPTDFIKGEDVFHAPYKAGQGWYDITKTFNGKDDLLCGAATAGNMLHWWFDQNKDQIKRYLEEHPEKQKINFNGEQMFDVKEAIDTKNSQLDSKLFEYFKEKAFPYLSTKHLGVFPDHVIDMFINGYRLSLTNHGPTPVKEGSKDPRGGIFDAVFTRGDQSKLLTSRHDFKEKNLKEISDLIKKELTEGKALGLSHTYANVRINHVINLWGADFDSNGNLKAIYVTDSDSNASIGMKKYFVGVNSAGKVAISAKEIKEDNIGAQVLGLFTLSTGQDSWNQTN    True
PRT-177 (protein) MANQEIRYSEVTPYHIKTVWTDGVKPPTDFIKGEDVFHAPYKAHQGWYDITKAFDGGDDLLCGAATAGNMLHWWFDQNSTQIEAYLKKHPDKQKINFNGEQMFDVKEAIDTKNSQTNSELFNYFKEKAFPYLSTKHLGVFPDHVIDMFINGYRLSLTNHGPTPVKRQTKDPRGGIFDAVFGRGDSTKLLTSRHDFKEKTLNDISQLIKQELQSGKALGLSHTYANVRINHVINLWGADFDAEGNLEAIYVTDSDSNASIGMKKYFVGKNASGKVAISAKEIEDENIGAQVLGLFTLSTGKKSWEKTN    True
PRT-85 (protein) MANQEIRYSEVTPKTITSVWTKGVTPPADFTQGEDVFHAPYKPNQGWYDINKTFNGKDNLLCGAATAGNMLHWWFDQNKEQIEAYLKKHPEKQKIMFGDQELLDVRKAINTKDDQTDSKLFNYFKDKAFPNLSARRLGVMPDHVLDMFINGYRLNVTKTQTTDVNRTYQTKDKRGGFFDAVFTRGDQSKLLTNRHDFKEKNLKEISDLIKKELTEGKALGLSHTYANVRINHVINLWGADFDSEGNLKAIYVTDSDSNASIGMKKYYVGVNSAGKVAISAKEIKGENIGAQVLGLYTLSTGQDIWNQTN    True
PRT-494 (protein) MVTSVWTKGVTPPTDFIKGEDVFHAPYKAGQGWYDITKTFNGKDDLLCGAATAGNMLHWWFDQNKEYIEAYLKKHPEKQKIMFGDQELLDVRKAINTKGSQKNSELFNYFRDKAFPNLSARRLGVMPDLVLDMFINGYYLNVTKTQTTDVNRTYQEKDKRGGIFDAVFTRGDQSKLLTSRHDFKEKGLKEISDLIKQELTEGKALGLSHTYANVRINHVINLWGADFDSDGNLKAIYVTDSDSNASIGMKKYFVGVNSAGKVAISAKEIKEDNIGAQVLGLFTLSTGQDIWNQTNLEHHHHHH    False

Request: # TODO verify Enzyme Activity Endpoint Assay: Fc < 200 ng/µL strictly for this protein: PRT-307 (protein) MQITSVWTKGVTPLTPEQFRKNNEDVIHAPYLAHQGWYDITKAFDGKDNLLCGAATAGNMLHWWFDQNKTEIEAYLSKHPEKQKIIFNNQELFDLKAAIDTKDSQTNSQLFNYFRDKAFPNLSARQLGVMPDLVLDMFINGYYLNVGKTQSTDVNRPYQDKDKRGGIFDAVFTRGDQTTLLTARHDLKNKGLNDISTIIKQELTEGRALALSHTYANVSISHVINLWGADFNAEGNLEAIYVTDSDANASIGMKKYFVGRNAHGHVAISAKKIEGENIGAQVLGLFTLSSGKDIWQKLS
Result: False
